We begin with a simple list: items and their reported growth inhibition.
Experiment: NCI Yeast Anticancer Drug Screen. Data for the sgs1 mgt1 strain (AID 161);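 further: 0% = growth of cultures given vehicle only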
Settings: S. cerevisiae sgs1 mgt1 strain, at 5.0 µM (retest, dose inferred, filed as 0.5), hits give high values
About 79,000 compounds went through this panel and 15% of them were active in at least one assay; those are over-represented in the sample as a whole.
Numeric only. Scale: %

Some entries whose results are on file:
compound: CCCCCCCCCCCCO
growth inhibition / %: -4
--
compound: O=C(Nc1cccc(Cl)c1)OCCOC(=O)Nc1cccc(Cl)c1
growth inhibition / %: 22
--
compound: O=C1c2c(F)c(F)c(F)c(F)c2SC2=NCCN12
growth inhibition / %: -10
--
compound: COc1ccc(C(=O)C2Cc3c(ccc4ccccc34)OC2=O)cc1 (stereo unspecified)
growth inhibition / %: -3
--
compound: Nc1cc2c(cc1/C=C(\C(=O)O)c1ccccc1)OCO2
growth inhibition / %: -5

growth inhibition for O=[N+]([O-])c1ccc2nc(-c3ccccn3)[nH]c2c1 is -13
